// provenance: patent US20230210857A1

- Assay Text: Three-phase pharmacokinetics (PK) study in minipigs, single IV and IM doses
- Run Parameters: male, Gottingen, minipig, in vivo, im, 4.8 mg/kg, Cmax
Recorded Endpoint: Cmax (ng/mL)
# output: bare number, implied unit ng/mL

Task item: Quote Cmax reported for CCCNc1nc(NCCC)nc(N(C)OC)n1 [active agent] please.
Reply: 466

----------
- Assay Text: Three-phase pharmacokinetics (PK) study in minipigs, single IV and IM doses
- Run Parameters: male, Gottingen, minipig, in vivo, iv, 4.8 mg/kg, Mean plasma concentration
Recorded Endpoint: concentration at 2 hr

Task item: Return concentration at 2 hr (reported value) for this compound: CCCNc1nc(NCCC)nc(N(C)OC)n1 [active agent]
Reply: 186 ng/mL

----------
- Assay Text: Three-phase pharmacokinetics (PK) study in minipigs, single IV and IM doses
- Run Parameters: male, Gottingen, minipig, in vivo, iv, 4.8 mg/kg, AUClast
Recorded Endpoint: AUC(0-t) (ng·h/mL)
Express it in ng·h/mL; write the number only.

Task item: Input CCCNc1nc(NCCC)nc(N(C)OC)n1 [active agent] , output reported AUC(0-t).
Reply: 2310

----------
- Assay Text: Three-phase pharmacokinetics (PK) study in minipigs, single IV and IM doses
- Run Parameters: male, Gottingen, minipig, in vivo, im, 4.8 mg/kg, AUCINF
Recorded Endpoint: AUC(0-inf) (ng·h/mL)
// return numeric value only (unit: ng·h/mL, not printed)

Task item: Tell me measured AUC(0-inf) for CCCNc1nc(NCCC)nc(N(C)OC)n1 please.
Reply: 2720

----------
- Assay Text: Three-phase pharmacokinetics (PK) study in minipigs, single IV and IM doses
- Run Parameters: male, Gottingen, minipig, in vivo, iv, 4.8 mg/kg, Mean plasma concentration
- Protocol: The study consisted of conducting a bioequivalence (BE) study in minipigs. Two formulations of a Compound having Formula (I) (N-(4,6-Bis-n-propylamino-[1,3,5]triazin-2-yl)-O,N-dimethyl-hydroxylamine) were tested in the study as follows: For IV administration, minipigs (n=3) received a single IV bolus (1-2 minutes) administration of the Compound having Formula (I) (N-(4,6-Bis-n-propylamino-[1,3,5]triazin-2-yl)-O,N-dimethyl-hydroxylamine) via VAP (vascular access port) at the jugular vein. […]
Recorded Endpoint: concentration at 1 hr (ng/mL)
All answers are understood in ng/mL, so give the number only.

Task item: Note down concentration at 1 hr recorded for CCCNc1nc(NCCC)nc(N(C)OC)n1 [active agent]
Reply: 519

----------
- Assay Text: Three-phase pharmacokinetics (PK) study in minipigs, single IV and IM doses
- Run Parameters: male, Gottingen, minipig, in vivo, im, 4.8 mg/kg, T1/2
Recorded Endpoint: half-life (h)
Use h as the unit, but write only the number.

Task item: Read off the recorded half-life for CCCNc1nc(NCCC)nc(N(C)OC)n1
Reply: 3.2
